Assay: self-splicing fitness, log relative to wild type (ln ratio); higher = more splicing; Tetrahymena group I intron in knt gene, E. coli kanamycin selection, DiMSum; sequences stand for … in CUCUCU…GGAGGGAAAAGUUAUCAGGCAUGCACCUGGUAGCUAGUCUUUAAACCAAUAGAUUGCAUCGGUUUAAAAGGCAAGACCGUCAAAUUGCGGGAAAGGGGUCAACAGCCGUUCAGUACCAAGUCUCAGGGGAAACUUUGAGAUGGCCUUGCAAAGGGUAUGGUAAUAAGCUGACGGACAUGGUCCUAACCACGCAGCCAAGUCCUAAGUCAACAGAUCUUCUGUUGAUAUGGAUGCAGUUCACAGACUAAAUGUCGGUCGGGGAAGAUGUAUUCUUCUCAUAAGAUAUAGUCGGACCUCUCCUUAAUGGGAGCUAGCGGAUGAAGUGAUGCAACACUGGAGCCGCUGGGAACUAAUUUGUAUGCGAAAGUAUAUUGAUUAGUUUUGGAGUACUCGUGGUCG;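 also: selection with 25 µg/mL kanamycin versus none on LB agar overnight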
Details: 30 °C
Recorded self-splicing fitness (ln) for the following sequences
measured-metric: self-splicing fitness (ln)

1. AUUGAGCAAUAUUACGUGUU :: -3.91
2. CUCCAGCAAUAUUACGGAGU :: -4.09
3. AGAUAGCAAUAUUACGCGCG :: 0.343
4. UUAUAGCAAUAUUACGGAAU :: -3.67
5. UAGCAGCAAUAUUACGGCGG :: -0.483
6. UCGCAGCAAUAUUACGUAUA :: -1.82

###

Test: self-splicing fitness, log relative to wild type (ln ratio); higher = more splicing; Tetrahymena group I intron in knt gene, E. coli kanamycin selection, DiMSum; sequences stand for … in CUCUCU…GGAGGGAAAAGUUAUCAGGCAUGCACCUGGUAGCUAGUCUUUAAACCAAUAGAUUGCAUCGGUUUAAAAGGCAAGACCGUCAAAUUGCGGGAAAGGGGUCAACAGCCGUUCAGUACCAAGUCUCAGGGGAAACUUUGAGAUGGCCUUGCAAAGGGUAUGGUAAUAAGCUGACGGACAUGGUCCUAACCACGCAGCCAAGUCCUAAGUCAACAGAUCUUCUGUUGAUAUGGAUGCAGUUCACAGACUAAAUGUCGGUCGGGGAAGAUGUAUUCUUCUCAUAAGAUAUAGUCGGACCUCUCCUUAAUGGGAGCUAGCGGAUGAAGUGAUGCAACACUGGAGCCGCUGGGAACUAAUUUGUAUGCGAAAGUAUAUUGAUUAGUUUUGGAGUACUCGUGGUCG
Settings: 37 °C
Recorded self-splicing fitness (ln) for the following sequences
measured-metric: self-splicing fitness (ln)

1. AAUAAGCAAUAUUACGCUCA :: -0.155
2. GAUCAGCAAUAUUACGGGAG :: -0.581
3. AUACAGCAAUAUUACGCGUG :: -0.481
4. AACCAGCAAUAUUACGCUCA :: 0.493
5. CAAGAGCAAUAUUACGGGUG :: -1.17
6. GGCCAGCAAUAUUACGGUGG :: -1.85
7. UUGAAGCAAUAUUACGGGAG :: -0.884
8. CACAAGCAAUAUUACGAUAA :: -2.22
9. ACUCAGCAAUAUUACGUAGG :: -0.368
10. AACAAGCAAUAUUACGGAGU :: -1.58
11. AGUGAGCAAUAUUACGGCCU :: 0.416
12. UCCCAGCAAUAUUACGUAAG :: -1.97
13. CUCAAGCAAUAUUACGUAUC :: -1.79
14. CGCUAGCAAUAUUACGCUCG :: -1.02
15. CGGAAGCAAUAUUACGCGAA :: -1.46
16. UAGAAGCAAUAUUACGGCUA :: -0.13
17. UCUCAGCAAUAUUACGCCCA :: -1.88
18. UCGAAGCAAUAUUACGUCGU :: -1.34
19. GGGAAGCAAUAUUACGUCCA :: 0.69
20. UUCAAGCAAUAUUACGGACG :: -0.868
21. UCGAAGCAAUAUUACGAUGA :: 0.368
22. CUCCAGCAAUAUUACGAAAU :: -1.75
23. AAAUAGCAAUAUUACGCAGU :: -1.57
24. AGGAAGCAAUAUUACGAGGU :: -2.97
25. UGAUAGCAAUAUUACGGAUA :: -1.6
26. CCCAAGCAAUAUUACGGUAU :: -2.51
27. CGACAGCAAUAUUACGGGUU :: -2.01
28. CCUGAGCAAUAUUACGCUUA :: -2.27
29. AACAAGCAAUAUUACGAGCG :: 0.125
30. AUUUAGCAAUAUUACGGAAG :: -1.49
31. AGUUAGCAAUAUUACGCAGA :: -2.04
32. AUUUAGCAAUAUUACGCUGG :: -1.4
33. AAGCAGCAAUAUUACGGCCU :: 0.636
34. AGUAAGCAAUAUUACGGAGA :: -2.44
35. AUAUAGCAAUAUUACGAGUC :: -2.63
36. AGUCAGCAAUAUUACGGACA :: 0.157
37. UUGAAGCAAUAUUACGUGGG :: -1.35
38. UCCGAGCAAUAUUACGCUGU :: -0.655
39. CUUUAGCAAUAUUACGGAAA :: -2.01
40. GCGUAGCAAUAUUACGUCUC :: -2.6
41. CCACAGCAAUAUUACGCAAA :: -3.24
42. GAGUAGCAAUAUUACGGUGA :: -1.62
43. UCUCAGCAAUAUUACGCCAG :: -1.2
44. UCCGAGCAAUAUUACGAUUC :: -2.79
45. AGGAAGCAAUAUUACGGGAA :: -2.08
46. GAGCAGCAAUAUUACGCAUC :: -3.08
47. AGCCAGCAAUAUUACGCGGA :: -2.23
48. GAUCAGCAAUAUUACGCGGU :: -1.85
49. CUUAAGCAAUAUUACGACCA :: -2.04
50. GCCCAGCAAUAUUACGUUGA :: -1.25
51. GAUCAGCAAUAUUACGAUCA :: -0.636
52. GGUCAGCAAUAUUACGGAAC :: -0.383
53. CUCUAGCAAUAUUACGUUUA :: -3.07
54. GGUUAGCAAUAUUACGCCUU :: -0.406
55. AUGUAGCAAUAUUACGGGAA :: -3.07
56. GAUUAGCAAUAUUACGACGU :: 0.93
57. GCCUAGCAAUAUUACGAUAA :: -1.75
58. AAAGAGCAAUAUUACGGGCA :: -1.42
59. CACGAGCAAUAUUACGGGAU :: -2.33
60. AUCAAGCAAUAUUACGUCUC :: -1.16

###

Recorded self-splicing fitness (ln) for the following sequences
Assay: self-splicing fitness, log relative to wild type (ln ratio); higher = more splicing; Tetrahymena group I intron in knt gene, E. coli kanamycin selection, DiMSum; sequences stand for … in CUCUCU…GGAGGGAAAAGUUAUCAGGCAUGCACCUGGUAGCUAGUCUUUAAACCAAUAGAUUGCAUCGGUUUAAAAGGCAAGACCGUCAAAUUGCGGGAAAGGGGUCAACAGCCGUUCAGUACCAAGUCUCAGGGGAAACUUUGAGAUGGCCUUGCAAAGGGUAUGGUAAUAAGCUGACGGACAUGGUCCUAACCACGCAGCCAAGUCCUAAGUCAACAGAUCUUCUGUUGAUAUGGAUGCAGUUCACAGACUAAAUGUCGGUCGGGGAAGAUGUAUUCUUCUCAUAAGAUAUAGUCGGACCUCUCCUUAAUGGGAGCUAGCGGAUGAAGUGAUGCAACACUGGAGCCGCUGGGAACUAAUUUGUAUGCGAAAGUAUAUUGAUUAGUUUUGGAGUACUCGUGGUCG
Details: 37 °C
measured-metric: self-splicing fitness (ln)

1) GGACAGCAAUAUUACGAUGG :: -2.05
2) GCUGAGCAAUAUUACGAAAC :: 0.274
3) GGACAGCAAUAUUACGGCCG :: -0.000523
4) AUUCAGCAAUAUUACGAAAU :: -0.557
5) CGCCAGCAAUAUUACGUCAC :: -2
6) UGAAAGCAAUAUUACGACGA :: -0.101
7) AUGAAGCAAUAUUACGACGU :: 0.735
8) AACUAGCAAUAUUACGGGUU :: -2.82
9) GCCGAGCAAUAUUACGGCAG :: -2.61
10) CACGAGCAAUAUUACGCGCG :: -1.25
11) GUGUAGCAAUAUUACGGCCC :: 0.583
12) UUCGAGCAAUAUUACGUCAA :: -2.38
13) GACGAGCAAUAUUACGUCUU :: -1.01
14) GAAUAGCAAUAUUACGCAUA :: -1.08
15) UAAGAGCAAUAUUACGGACA :: -2.31
16) GCUCAGCAAUAUUACGCUUA :: -0.165
17) CUCCAGCAAUAUUACGAUUA :: -2.37
18) AUAAAGCAAUAUUACGCGUC :: -2.73
19) GUUGAGCAAUAUUACGACUU :: -1.92
20) GCAGAGCAAUAUUACGGCCG :: -2.02
21) AUAGAGCAAUAUUACGAGUA :: -2.52
22) CCCUAGCAAUAUUACGCUAG :: -2.47
23) UUCGAGCAAUAUUACGAGCC :: -2.68
24) AUGUAGCAAUAUUACGGAUG :: -2.82
